In this section we review reported relative kcat/Km values for a set of sequences.
# target desc: E. coli RNase P holoenzyme (M1 P RNA + rnpA protein)
# Sequence: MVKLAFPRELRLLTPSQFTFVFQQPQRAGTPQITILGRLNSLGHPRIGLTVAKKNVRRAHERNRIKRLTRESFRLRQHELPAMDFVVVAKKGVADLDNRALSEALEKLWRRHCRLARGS
# experiment notes: relative kcat/Km (krel) vs genomic leader AAAGAU (relative (reference leader = 1)); higher = faster RNase P cleavage
# assay context: fraction of substrate reacted: ~9-10% (9.79% repeat 1, 9.1% repeat 2)
Whole data set: some 4,100 sequences, median “relative kcat/Km (krel) vs genomic leader AAAGAU” near 1.7, cut for the highest 2% near 6.5. Only a selection was taken, and the highest values are over-represented in it overall.
Answer field: number only, no words.

TTCGAA 5.32
CCAGCA 1.37
CCCTCT 2.96
GAAGAT 1.93
GGCGAA 2.38

Ask | Lab note: need relative kcat/Km with E. coli RNase P holoenzyme (M1 P RNA + rnpA protein) for entry CATTTC , please look it up.
Reply | 2.59

Ask | Next entry: CCCTCA
Reply | 2.47

Ask | Next entry: GTCGTA
Reply | 2.55

Ask | Next entry: CTCGTC
Reply | 2.68

Ask | Next entry: ACTTTA
Reply | 1.56

Ask | Next entry: GTCGAG
Reply | 2.05

Ask | Next entry: GTCGAC
Reply | 3.76

Ask | Next entry: ATCGAC
Reply | 3.59

Ask | Next entry: ACCTCC
Reply | 3.29

Ask | Next entry: CCCTCC
Reply | 3.55

Ask | Next entry: AATGAA
Reply | 2.18

Ask | Next entry: CTCGAA
Reply | 4.31

Ask | Next entry: GTCGAT
Reply | 1.85

Ask | Next entry: GTCGAA
Reply | 4.23

Ask | Next entry: TCCTCA
Reply | 3.22

Ask | Next entry: TTCGAT
Reply | 1.69

Ask | Next entry: ATCGAG
Reply | 2.14

Ask | Next entry: TCCTCC
Reply | 3.65

* * *

# target desc: E. coli RNase P holoenzyme (M1 P RNA + rnpA protein) (UniProt P0A7Y8)
# Sequence: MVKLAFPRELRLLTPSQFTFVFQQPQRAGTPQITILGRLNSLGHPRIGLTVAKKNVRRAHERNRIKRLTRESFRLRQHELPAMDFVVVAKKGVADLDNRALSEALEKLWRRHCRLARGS
# experiment notes: relative kcat/Km (krel) vs genomic leader AAAGAU (relative (reference leader = 1)); higher = faster RNase P cleavage
# assay context: fraction of substrate reacted: ~13-16% (15.68% repeat 1, 13.17% repeat 2)
Whole data set: some 4,100 sequences, median “relative kcat/Km (krel) vs genomic leader AAAGAU” near 1.7, cut for the highest 2% near 6.5. Many of the other results were omitted from the sample, so the highest values are more common in it than they were.
Classification scheme (relative kcat/Km): label 0 = under 2, label 1 = from 2 up to 4, label 2 = 4 and over

GACACC label 1

Ask | Exercise: read the entry TTGCAC and state which class it falls under.
Reply | label 1

Ask | Next entry: TCAGCT
Reply | label 0

Ask | Next entry: TTCGCT
Reply | label 1

Ask | Next entry: GTCGTC
Reply | label 1

Ask | Next entry: AGTTAG
Reply | label 1

Ask | Next entry: TACAAA
Reply | label 2

Ask | Next entry: CTCGTC
Reply | label 1

Ask | Next entry: CCATAA
Reply | label 1
